Molecular target: Programmed cell death protein 1/Programmed cell death 1 ligand 1 (Homo sapiens, UniProt Q15116+Q9NZQ7)
Sequence (Q15116 whole entry): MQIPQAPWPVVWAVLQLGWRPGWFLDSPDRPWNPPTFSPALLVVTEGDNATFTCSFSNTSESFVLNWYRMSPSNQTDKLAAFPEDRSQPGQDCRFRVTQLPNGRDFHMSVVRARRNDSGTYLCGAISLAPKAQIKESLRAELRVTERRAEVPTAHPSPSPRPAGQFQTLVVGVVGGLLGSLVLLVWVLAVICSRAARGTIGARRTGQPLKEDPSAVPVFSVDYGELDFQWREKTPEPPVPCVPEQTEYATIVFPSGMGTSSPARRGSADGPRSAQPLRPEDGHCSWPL
Sequence (Q9NZQ7 whole entry): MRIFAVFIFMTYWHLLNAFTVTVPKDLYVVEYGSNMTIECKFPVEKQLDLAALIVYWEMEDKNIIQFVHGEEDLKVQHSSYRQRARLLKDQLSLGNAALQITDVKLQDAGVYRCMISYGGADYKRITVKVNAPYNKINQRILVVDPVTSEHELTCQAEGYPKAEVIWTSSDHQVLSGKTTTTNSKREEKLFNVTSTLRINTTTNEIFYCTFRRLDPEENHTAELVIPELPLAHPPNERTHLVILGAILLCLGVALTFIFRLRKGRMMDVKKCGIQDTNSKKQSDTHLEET
Test: Inhibition of PD-1/PDL1 protein-protein interaction (unknown origin) by HTRF assay
Assay type: protein-complex assay
Measurement Label: log10(IC50) (log10 of the value in nM)

Compound | log10(IC50)
O=C(O)CNCc1ccc2onc(Nc3cccc(-c4ccccc4)c3Cl)c2c1 | 1.48
O=C(O)[C@H](CO)NCc1ccc2c(Nc3cccc(-c4ccccc4)c3Cl)noc2c1 | 3.38
O=C(O)[C@H](CO)NCc1ccc2onc(Nc3cccc(-c4ccccc4)c3Cl)c2c1 | 1.43
CC(=O)NCCNCc1ccc2c(Nc3cccc(-c4ccc5c(c4)OCCO5)c3Cl)noc2c1 | 2.92
OC1CCN(Cc2ccc3c(Nc4cccc(-c5ccc6c(c5)OCCO6)c4Cl)noc3c2)C1 (racemic) | 3.23
O=C(O)C1CCN(Cc2ccc3onc(Nc4cccc(-c5ccccc5)c4Cl)c3c2)CC1 | 2.79
CC(=O)NCCNCc1ccc2onc(Nc3cccc(-c4ccc5c(c4)OCCO5)c3Cl)c2c1 | 2.64
O=C(O)CNCc1ccc2c(Nc3cccc(-c4ccccc4)c3Cl)noc2c1 | 2.86
O=C(O)[C@H](CO)NCc1ccc2c(Nc3cccc(-c4ccc5c(c4)OCCO5)c3Cl)noc2c1 | 3.24
